- Experimental target: TP53-binding protein 1 (Homo sapiens, UniProt Q12888)
- Sequence (Q12888 whole entry, the tested form may be a part): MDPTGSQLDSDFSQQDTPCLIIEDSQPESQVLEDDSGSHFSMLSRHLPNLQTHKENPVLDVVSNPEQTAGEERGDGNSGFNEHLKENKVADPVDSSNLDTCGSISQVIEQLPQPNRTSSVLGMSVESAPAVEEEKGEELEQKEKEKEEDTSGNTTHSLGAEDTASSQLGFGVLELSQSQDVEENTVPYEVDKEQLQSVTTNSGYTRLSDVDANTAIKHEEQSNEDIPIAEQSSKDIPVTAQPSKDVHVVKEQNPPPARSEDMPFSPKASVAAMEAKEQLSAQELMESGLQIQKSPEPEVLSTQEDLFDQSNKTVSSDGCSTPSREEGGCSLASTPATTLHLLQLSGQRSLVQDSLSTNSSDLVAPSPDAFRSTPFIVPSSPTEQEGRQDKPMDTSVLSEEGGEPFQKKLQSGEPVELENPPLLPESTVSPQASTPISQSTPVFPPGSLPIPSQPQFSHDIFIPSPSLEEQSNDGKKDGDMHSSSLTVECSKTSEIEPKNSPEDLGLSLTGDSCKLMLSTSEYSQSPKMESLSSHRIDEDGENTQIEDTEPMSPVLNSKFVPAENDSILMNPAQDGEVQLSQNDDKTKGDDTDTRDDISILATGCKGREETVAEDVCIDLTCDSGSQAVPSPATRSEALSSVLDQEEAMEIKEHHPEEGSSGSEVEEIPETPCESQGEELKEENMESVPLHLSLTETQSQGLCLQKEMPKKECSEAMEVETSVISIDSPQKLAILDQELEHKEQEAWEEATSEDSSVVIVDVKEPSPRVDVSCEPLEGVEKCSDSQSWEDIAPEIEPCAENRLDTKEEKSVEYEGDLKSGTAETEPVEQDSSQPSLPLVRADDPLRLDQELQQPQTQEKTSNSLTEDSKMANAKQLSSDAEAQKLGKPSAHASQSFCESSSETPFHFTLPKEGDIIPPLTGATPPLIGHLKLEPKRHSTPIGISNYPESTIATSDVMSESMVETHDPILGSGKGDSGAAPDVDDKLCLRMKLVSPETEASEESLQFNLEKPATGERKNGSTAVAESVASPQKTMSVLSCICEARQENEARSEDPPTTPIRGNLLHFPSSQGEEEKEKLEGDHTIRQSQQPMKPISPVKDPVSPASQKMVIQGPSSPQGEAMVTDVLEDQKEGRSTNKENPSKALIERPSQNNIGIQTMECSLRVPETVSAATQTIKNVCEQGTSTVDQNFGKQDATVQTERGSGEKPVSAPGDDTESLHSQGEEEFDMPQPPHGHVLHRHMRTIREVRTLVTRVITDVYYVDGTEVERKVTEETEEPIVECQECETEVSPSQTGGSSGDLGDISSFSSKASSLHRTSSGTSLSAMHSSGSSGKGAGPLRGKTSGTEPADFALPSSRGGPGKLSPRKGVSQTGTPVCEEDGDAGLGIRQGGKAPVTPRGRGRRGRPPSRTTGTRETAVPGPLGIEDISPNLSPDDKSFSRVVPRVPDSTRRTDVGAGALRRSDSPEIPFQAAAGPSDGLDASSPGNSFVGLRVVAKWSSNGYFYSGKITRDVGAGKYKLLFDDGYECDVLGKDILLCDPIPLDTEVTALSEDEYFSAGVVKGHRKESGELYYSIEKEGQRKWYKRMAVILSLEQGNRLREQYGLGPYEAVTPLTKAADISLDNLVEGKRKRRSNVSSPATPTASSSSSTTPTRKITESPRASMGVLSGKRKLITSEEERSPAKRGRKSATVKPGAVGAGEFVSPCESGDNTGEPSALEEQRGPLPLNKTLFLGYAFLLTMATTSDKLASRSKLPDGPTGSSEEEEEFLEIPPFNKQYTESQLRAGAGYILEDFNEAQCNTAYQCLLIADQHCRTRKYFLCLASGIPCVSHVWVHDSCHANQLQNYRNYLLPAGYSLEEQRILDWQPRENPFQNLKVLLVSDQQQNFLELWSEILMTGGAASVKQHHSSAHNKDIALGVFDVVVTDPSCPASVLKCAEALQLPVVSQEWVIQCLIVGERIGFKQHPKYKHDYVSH
- Assay procedure: Antagonist activity at nanoluc-tagged 53BP1 tandem tudor domain (unknown origin) transfected in HEK293T cells assessed as inhibition of 53BP1-H4 peptide interaction by nanoBRET assay
- Format: cell-based
# IC50 values compiled below
Recorded endpoint: IC50 (µM)

{"Mol smiles": "CN1CCN(c2ccnc(C(=O)N3CCC[C@H](C(=O)Nc4cccc(-c5ccc6c(c5)C(=O)NC6)c4)C3)c2)CC1", "Readout value": 6.9}
{"Mol smiles": "CN1CCN(c2ccnc(C(=O)N3CCC[C@H](C(=O)Nc4cccc(-c5ccc(C(N)=O)cc5)c4)C3)c2)CC1", "Readout value": 8.5}

----------
- Experimental target: E3 ubiquitin-protein ligase UHRF1 (Homo sapiens, UniProt Q96T88)
- Sequence (Q96T88 whole entry): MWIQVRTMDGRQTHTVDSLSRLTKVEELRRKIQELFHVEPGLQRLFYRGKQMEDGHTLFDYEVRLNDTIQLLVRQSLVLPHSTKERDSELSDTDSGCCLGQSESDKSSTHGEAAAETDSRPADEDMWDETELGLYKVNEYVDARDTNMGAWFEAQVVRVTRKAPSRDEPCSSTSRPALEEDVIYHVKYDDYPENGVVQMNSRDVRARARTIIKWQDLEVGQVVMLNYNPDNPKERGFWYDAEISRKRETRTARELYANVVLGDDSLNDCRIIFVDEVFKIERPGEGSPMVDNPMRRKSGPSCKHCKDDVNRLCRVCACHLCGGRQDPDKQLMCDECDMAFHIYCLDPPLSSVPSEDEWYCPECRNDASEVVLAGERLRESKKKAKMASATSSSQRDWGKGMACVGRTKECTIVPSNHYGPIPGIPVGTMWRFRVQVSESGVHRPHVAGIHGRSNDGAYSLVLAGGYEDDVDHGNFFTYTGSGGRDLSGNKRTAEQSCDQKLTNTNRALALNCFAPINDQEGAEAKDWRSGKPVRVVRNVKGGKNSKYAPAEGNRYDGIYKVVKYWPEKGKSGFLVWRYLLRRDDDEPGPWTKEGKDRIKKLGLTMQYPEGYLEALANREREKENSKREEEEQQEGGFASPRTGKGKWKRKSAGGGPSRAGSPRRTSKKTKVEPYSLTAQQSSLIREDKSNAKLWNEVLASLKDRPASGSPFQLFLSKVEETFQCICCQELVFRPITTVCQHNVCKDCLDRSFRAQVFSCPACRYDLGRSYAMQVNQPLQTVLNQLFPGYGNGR
pIC50: −log10 of the molar value.

{"Mol smiles": "CN1CCN(c2ccnc(C(=O)N3CCC[C@H](C(=O)Nc4cccc(-c5ccc(C(N)=O)cc5)c4)C3)c2)CC1", "Experimental target": "E3 ubiquitin-protein ligase UHRF1 (Homo sapiens, UniProt Q96T88)", "pIC50": "< 4.00"}

----------
- Experimental target: PHD finger protein 19 (Homo sapiens, UniProt Q5T6S3)

{"Mol smiles": "CN1CCN(c2ccnc(C(=O)N3CCC[C@H](C(=O)Nc4cccc(-c5ccc(C(N)=O)cc5)c4)C3)c2)CC1", "IC50": "> 100 µM"}

----------
- Experimental target: TP53-binding protein 1 (Homo sapiens)
- Assay procedure: Displacement of Biotin-p53K381acK382me2 from N-terminal his6-tagged 53BP1 (1484 to 1603 residues) (unknown origin) expressed in Rosetta2 BL21 (DE3) pLysS competent cells by TR-FRET assay
- Type: single protein
pIC50: −log10 of the molar value.
Entry flag: t if pIC50 reaches 5; f if it does not.

{"Mol smiles": "CCCN1CCN(c2ccnc(C(=O)N3CCC[C@H](C(=O)Nc4cccc(-c5ccc(C(N)=O)cc5)c4)C3)c2)CC1", "Label value": "f"}
{"Mol smiles": "CC(C)N1CCN(c2ccnc(C(=O)N3CCC[C@H](C(=O)Nc4cccc(-c5ccc(C(N)=O)cc5)c4)C3)c2)CC1", "Label value": "t"}
{"Mol smiles": "CN1CCN(c2ccnc(C(=O)N3CCC[C@H](C(=O)Nc4cccc(-c5ccc6c(c5)C(=O)NC6)c4)C3)c2)CC1", "Label value": "t"}
{"Mol smiles": "CCN1CCN(c2ccnc(C(=O)N3CCC[C@H](C(=O)Nc4cccc(-c5ccc(C(N)=O)cc5)c4)C3)c2)CC1", "Label value": "t"}
{"Mol smiles": "CN1CCN(c2ccnc(C(=O)N3CCC[C@H](C(=O)Nc4cccc(-c5ccc6c(c5)CNC6=O)c4)C3)c2)CC1", "Label value": "t"}
{"Mol smiles": "CN1CCN(c2ccnc(C(=O)N3CCC[C@H](C(=O)Nc4cccc(-c5ccc(C(N)=O)cc5)c4)C3)c2)CC1", "Label value": "t"}

----------
- Experimental target: TP53-binding protein 1 (Homo sapiens, UniProt Q12888)
- Assay procedure: Displacement of Biotin-p53K381acK382me2 from N-terminal his6-tagged 53BP1 (1484 to 1603 residues) (unknown origin) expressed in Rosetta2 BL21 (DE3) pLysS competent cells by TR-FRET assay
- Format: single protein
# IC50 values compiled below
Recorded endpoint: IC50

{"Mol smiles": "CN1CCN(c2ccnc(C(=O)N3CCC[C@H](C(=O)Nc4ccccc4)C3)c2)CC1", "Experimental target": "TP53-binding protein 1 (Homo sapiens, UniProt Q12888)", "Readout value": "22 µM"}
{"Mol smiles": "CN1CCN(c2ccnc(C(=O)N3CCC[C@H](C(=O)Nc4cccc(-c5ccc6c(c5)CCN6)c4)C3)c2)CC1", "Experimental target": "TP53-binding protein 1 (Homo sapiens, UniProt Q12888)", "Readout value": "7.8 µM"}
{"Mol smiles": "CN1CCN(c2ccnc(C(=O)N3CCC[C@H](C(=O)Nc4cccc(N5CCNCC5)c4)C3)c2)CC1", "Experimental target": "TP53-binding protein 1 (Homo sapiens, UniProt Q12888)", "Readout value": "44 µM"}
{"Mol smiles": "CN1CCN(c2ccnc(C(=O)N3CCC[C@H](C(=O)Nc4cccc(-c5ccc6c(c5)CCNC6)c4)C3)c2)CC1", "Experimental target": "TP53-binding protein 1 (Homo sapiens, UniProt Q12888)", "Readout value": "28 µM"}

----------
- Experimental target: Chromobox protein homolog 2 (Homo sapiens)
- Sequence (Q14781 whole entry): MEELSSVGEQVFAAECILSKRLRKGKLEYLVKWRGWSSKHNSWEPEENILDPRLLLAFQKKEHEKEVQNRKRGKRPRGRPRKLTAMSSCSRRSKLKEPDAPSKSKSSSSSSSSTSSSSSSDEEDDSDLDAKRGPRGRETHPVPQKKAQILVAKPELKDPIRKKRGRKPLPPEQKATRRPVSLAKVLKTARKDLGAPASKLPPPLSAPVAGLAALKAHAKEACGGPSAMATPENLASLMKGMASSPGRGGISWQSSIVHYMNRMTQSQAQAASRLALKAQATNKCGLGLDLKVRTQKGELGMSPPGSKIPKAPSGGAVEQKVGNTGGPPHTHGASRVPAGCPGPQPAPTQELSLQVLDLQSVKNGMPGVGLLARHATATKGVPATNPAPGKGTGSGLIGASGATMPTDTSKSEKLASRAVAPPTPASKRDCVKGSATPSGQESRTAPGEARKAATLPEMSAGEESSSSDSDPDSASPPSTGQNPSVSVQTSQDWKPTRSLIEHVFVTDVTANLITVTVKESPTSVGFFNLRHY
pIC50: −log10 of the molar value.

{"Mol smiles": "CN1CCN(c2ccnc(C(=O)N3CCC[C@H](C(=O)Nc4cccc(-c5ccc(C(N)=O)cc5)c4)C3)c2)CC1", "pIC50": "< 4.00"}
{"Mol smiles": "CN1CCN(c2ccnc(C(=O)N3CCC[C@H](C(=O)Nc4cccc(-c5ccc6c(c5)C(=O)NC6)c4)C3)c2)CC1", "pIC50": "< 4.00"}

----------
- Experimental target: TP53-binding protein 1 (Homo sapiens, UniProt Q12888)
- Assay procedure: Displacement of Biotin-p53K381acK382me2 from N-terminal his6-tagged 53BP1 (1484 to 1603 residues) (unknown origin) expressed in Rosetta2 BL21 (DE3) pLysS competent cells by TR-FRET assay
- Type: single protein
# IC50 values compiled below

{"Mol smiles": "CN1CCN(c2ccnc(C(=O)N3CCC[C@H](C(=O)Nc4cccc(-c5ccncc5)c4)C3)c2)CC1", "IC50": "6.6 µM"}
{"Mol smiles": "CN1CCN(c2ccnc(C(=O)N3CC[C@H]3C(=O)Nc3cccc(-c4ccc(C(N)=O)cc4)c3)c2)CC1", "IC50": "5.7 µM"}
{"Mol smiles": "CN1CCN(c2ccnc(C(=O)N3CCC[C@H](C(=O)Nc4cccc(-c5ccccn5)c4)C3)c2)CC1", "IC50": "18 µM"}
{"Mol smiles": "CN1CCN(c2ccnc(C(=O)N3CCC[C@@H](C(=O)Nc4cccc(-c5ccc(C(N)=O)cc5)c4)C3)c2)CC1", "IC50": "15 µM"}
{"Mol smiles": "CN1CCN(c2ccnc(C(=O)N3CC[C@H](C(=O)Nc4cccc(-c5ccc(C(N)=O)cc5)c4)C3)c2)CC1", "IC50": "2.2 µM"}
{"Mol smiles": "CN1CCN(c2ccnc(C(=O)N3CCC[C@H](C(=O)Nc4cccc(N5CCOCC5)c4)C3)c2)CC1", "IC50": "32 µM"}
{"Mol smiles": "CN1CCN(c2ccnc(C(=O)N3CCC[C@H](C(=O)Nc4cncc(-c5ccccc5)c4)C3)c2)CC1", "IC50": "5.9 µM"}
{"Mol smiles": "CNC(=O)[C@H]1CCCN(C(=O)c2cc(N3CCN(C)CC3)ccn2)C1", "IC50": "> 100 µM"}
{"Mol smiles": "CN1CCN(c2ccnc(C(=O)N3CCC[C@H](C(=O)Nc4cc(-c5cccnc5)ncn4)C3)c2)CC1", "IC50": "> 100 µM"}

Cited source for all entries: ChEMBL document CHEMBL5370599
